experiment: NCI Yeast Anticancer Drug Screen. Data for the cln2 rad14 strain (AID 165);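 also: 0% = growth equal to vehicle treated cultures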; settings: S. cerevisiae cln2 rad14 strain, at 50.0 µM
Compounds without any hit were thinned out: in the full panel of roughly 79,000, 15% have a hit. Activity calls are given as the source filed them. Rule as the data show it: active = growth inhibition above about 70%; inactive = the rest.
Reply using exactly one outcome from True (active), False (inactive)

Worked examples follow.
Enquiry: Please share the test call associated with O=[N+]([O-])c1cc2ccc(O)cc2c2ccccc12 .
Return: True

Enquiry: Please share the test call associated with O=C(/C=C(/Nc1ccccc1)C(=O)c1ccccc1)c1ccccc1 .
Return: False

Enquiry: Please share the test call associated with CC(=O)OC1C(OC(C)=O)C2C(C)CC3OC(=O)C(C)C3CC2(C)C1OC(C)=O (stereo not given) .
Return: False

Enquiry: Please share the test call associated with CCCCN=C(c1ccc(O)cc1)c1ccc(OC)cc1O .
Return: False

Enquiry: Please share the test call associated with c1ccc(C2=NC(=c3ccc(=C4N=C(c5ccccc5)C(c5ccccc5)=N4)cc3)N=C2c2ccccc2)cc1 .
Return: False

Enquiry: Please share the test call associated with NC(=O)CCSC(=S)N1CCOCC1 .
Return: False

Enquiry: Please share the test call associated with CCC/C=C1/OC(=O)C2=C[C@H]3CC[C@]21[C@]1(OC(=O)C2=C1CCC=C2)[C@H]3CCC .
Return: True

Enquiry: Please share the test call associated with CN(Cc1cc(Br)cc(Br)c1O)Cc1c[nH]c2ccccc12 .
Return: False

Next:
Enquiry: Please share the test call associated with C1=C(c2ccccc2)[P+](c2ccccc2)(c2ccccc2)C=C(c2ccccc2)[P+]1(c1ccccc1)c1ccccc1 .
Return: True

Enquiry: Please share the test call associated with FC(F)(F)COP1(OCC(F)(F)F)=NP(OCC(F)(F)F)(OCC(F)(F)F)=NP(c2ccccc2)(c2ccccc2)=N1 .
Return: False

###

experiment: NCI Yeast Anticancer Drug Screen. Data for the sgs1 mgt1 strain (AID 161);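 also: 0% = growth of cultures given vehicle only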; details: S. cerevisiae sgs1 mgt1 strain, at 5.0 µM (retest, dose inferred, filed as 0.5)
Compounds without any hit were thinned out: in the full panel of roughly 79,000, 15% have a hit. Activity calls are given as the source filed them. Cut-off read from the data, not from the text of the source: active = growth inhibition above about 70%; inactive = the rest.
Reply using exactly one outcome from active, inactive

Enquiry: Please share the test call associated with CSc1nc(C)c(C(=O)CCN2CCOCC2)s1 .
Return: inactive

Enquiry: Please share the test call associated with Cc1ccc(Sc2ccc3ccccc3n2)cc1 .
Return: inactive

Enquiry: Please share the test call associated with Oc1ccc2ccccc2c1CNc1ccc2ccccc2c1 .
Return: inactive

Turning now to a further record.
Enquiry: Please share the test call associated with CCN(CC)c1c(C(=O)/C=C/c2ccc(Cl)cc2)c(-c2ccccc2)nn(C)c1=O .
Return: inactive

###

Assign growth inhibition to each entry below.
Assay: NCI Yeast Anticancer Drug Screen. Data for the rad50 strain (AID 155);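 also: 0% = growth of vehicle-only cultures of the same strain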
Conditions: S. cerevisiae rad50 strain growth inhibition; at 50.0 µM; active compounds read high
Method: Growth inhibition of yeast strains with defined genetic alterations is measured as a screen for potential anti-cancer activity. Selected strains with alterations in DNA damage repair or cell cycle control were exposed to compounds and growth inhibition was measured relative to vehicle treated controls. The strain used in this assay is rad50
About 79,000 compounds went through this panel and 15% of them were active in at least one assay; those are over-represented in the sample as a whole.
Numbers only, in %.

Please review the following examples before continuing.
Enquiry: Please look up its growth inhibition: CC(C)c1cc(C(=O)[O-])c(O)c(C(C)C)c1.CC(C)c1cc(C(=O)[O-])c(O)c(C(C)C)c1.CC(C)c1cc(C(=O)[O-])c(O)c(C(C)C)c1.CC(C)c1cc(C(=O)[O-])c(O)c(C(C)C)c1.CC(C)c1cc(C(=O)[O-])c(O)c(C(C)C)c1.CC(C)c1cc(C(=O)[O-])c(O)c(C(C)C)c1.[Cu+2].[Mn+2].[Mn+2]
Return: 43.5

Enquiry: Please look up its growth inhibition: CC(C)C[C@H](NC(=O)[C@H](Cc1ccccc1)NC(=O)c1cnccn1)B(O)O
Return: 55.8

Next:
Enquiry: Please look up its growth inhibition: O=C(OCc1ccccc1)C(O)c1ccccc1 (stereo not drawn)
Return: 24.1

###

test: NCI Yeast Anticancer Drug Screen. Data for the sgs1 mgt1 strain (AID 161);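 also: 0% = growth of cultures given vehicle only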; conditions: S. cerevisiae sgs1 mgt1 strain, at 50.0 µM
This is part of a sample that, as a whole, favours compounds with a hit. Of some 79,000 tested, about 15% had one in any assay. The source made the active and inactive calls. No stated cut-off is given here; in the data, active means growth inhibition above about 70%; inactive means the rest.
Reply using exactly one outcome from 1.0 (active), 0.0 (inactive)

Worked examples follow.
Enquiry: Please share the test call associated with CS(=O)(=O)n1c(C(O)c2ccccc2)nc2ccccc21 (centres undefined) .
Return: 0.0

Enquiry: Please share the test call associated with Oc1ccc(-c2ccccc2)cc1O .
Return: 1.0

Enquiry: Please share the test call associated with CCOc1c(N=Nc2ccccc2Cl)c(C)nn1C(=S)S .
Return: 1.0

Enquiry: Please share the test call associated with N#CS/C(Cl)=C(/C(Cl)=C(Cl)Cl)[N+](=O)[O-] .
Return: 1.0

Enquiry: Please share the test call associated with C/C(=N/NC(=S)N1CCCC1)c1cccc(/C(C)=N\NC(=S)N2CCCC2)n1 .
Return: 0.0

Next:
Enquiry: Please share the test call associated with CS(=O)(=O)OCCN(CCOS(C)(=O)=O)c1ccc(N=Nc2ccccc2)cc1 .
Return: 0.0

###

test: NCI Yeast Anticancer Drug Screen. Data for the mlh1 rad18 strain (AID 175); settings: S. cerevisiae mlh1 rad18 strain growth inhibition; at 5.0 µM (retest, dose inferred, filed as 0.5); active compounds read high
About 79,000 compounds went through this panel and 15% of them were active in at least one assay; those are over-represented in the sample as a whole.
Assign growth inhibition to each entry below.
Give bare numbers, in %.

Enquiry: Please look up its growth inhibition: Oc1c(Cl)ccc2cccnc12
Return: 95

Enquiry: Please look up its growth inhibition: CC(=O)Oc1ccc(C)cc1C(C)(C)C
Return: -1

I would be grateful if you could provide growth inhibition for each of the following entries.
1. O=C(/C=C\c1ccccc1)/C=C/c1ccccc1
2. CC1(CO)CCCC2(C)C3=C(CCCC3)CCC12 (centres undefined)

Return:
1. -1
2. -108

I would be grateful if you could provide growth inhibition for each of the following entries.
1. CCOC(=O)c1cnc2ccc(C3CCCCC3)cc2c1Nc1ccc2c(c1)OCO2
2. Cc1ccc(NC(=O)CC2SC(=Nc3ccc(Cl)cc3)NC2=O)cc1C (centres undefined)
3. [C](#[C][Sn]([c]1ccccc1)([c]1ccccc1)[c]1ccccc1)[Sn]([c]1ccccc1)([c]1ccccc1)[c]1ccccc1

Return:
1: -3; 2: 31; 3: 98

I would be grateful if you could provide growth inhibition for each of the following entries.
1. O=C1C(=O)c2ccccc2C=C1Br
2. COc1ccc2nc3cc(Cl)ccc3c(NCCCN(Cc3cc(OC)c(OC)c(OC)c3)Cc3cc(OC)c(OC)c(OC)c3)c2c1

Return:
1: 85; 2: 48

I would be grateful if you could provide growth inhibition for each of the following entries.
1. COc1cc(N=Nc2ccccc2)cc(/C=N/NC(N)=S)c1O
2. COc1cccc(C2c3cc4c(cc3OC(N3CCOCC3)C2C)OCO4)c1 (centres undefined)
3. CS/C(C#N)=C(\C#N)SC
4. C[N+]1(C)C/C(=C\C=C\c2ccccc2)C(=O)/C(=C/C=C/c2ccccc2)C1
5. NC(Cc1nn[nH]n1)C(=O)O (centres undefined)
6. OCCc1cccc2ccc3ccccc3c12

Return:
[4, 20, 7, 9, -18, 2]

I would be grateful if you could provide growth inhibition for each of the following entries.
1. O=c1c2cc3c(cc2c2cccc4c2n1CCC4)OCO3
2. Cc1cc(C)c(S(=O)(=O)n2ccnc2)c(C)c1
3. COc1cc(-c2nn3c(=O)n(-c4ccc(Cl)cc4)c(=O)nc3s2)cc(OC)c1OC

Return:
1: -2; 2: -36; 3: -2

I would be grateful if you could provide growth inhibition for each of the following entries.
1. Oc1ccc(N(Cc2ccccc2)Cc2ccccc2)cc1
2. S=c1[nH]c2ccc(Br)cc2c(=S)n1-c1ccccc1
3. Cc1ccc(O)c(Cc2ccc(Cl)cc2)c1
4. CCCCCCCCCCNCCSSCCNC(C)=O
5. N#Cc1ccc2nc3ccc(N)cc3nc2c1
6. CCCCCCCCCCCCSC1=C(N)C(=O)c2ccccc2C1=O

Return:
6
-29
-119
90
-5
0

I would be grateful if you could provide growth inhibition for each of the following entries.
1. O=C(CCl)[O][Bi]([O]C(=O)CCl)([c]1ccccc1)([c]1ccccc1)[c]1ccccc1
2. O=C(CC(O)c1ccccc1)Sc1ccccc1 (centres undefined)
3. COc1cc(C2=NCCO2)cc(OC)c1OC

Return:
1: 17; 2: -8; 3: -196

I would be grateful if you could provide growth inhibition for each of the following entries.
1. CCOC(=O)c1c(N)c(=O)n2c3c(cccc13)CC2
2. Cc1cccc(NC(=O)Oc2ccc(Cl)c3cccnc23)c1
3. O=[N+]([O-])C1CCC(C2=CSC3CCCCC3N2)CC1 (centres undefined)
4. Cc1cc(Nc2ccc(N=Nc3ccc(O)c4ncccc34)cc2)nc(C)n1
5. Cc1ccc(S(=O)(=O)CC2(Br)Cc3ccccc3C2=O)cc1 (centres undefined)
6. O=C(/C=C/c1ccccc1)CCN1CCN(CCC(=O)/C=C/c2ccccc2)CC1

Return:
21
72
-1
0
75
78
